test: Lipophilicity, log D of the compound; type: physicochemical; details: octanol/water
VALUE_KIND: logD
Note: the reply should be a number with no unit written.

Exam item: Fill in the blank: the reported logD of CN(C)CCN1CCN(C(=O)N2C[C@H](c3ccc(Cl)c(Cl)c3)[C@@H](N(C)Cc3ccc(C(F)(F)F)c(F)c3)C2)CC1 is ____.
Marked response: 2.9

----------
test: Aqueous solubility of the compound; type: physicochemical
VALUE_KIND: solubility (µg/mL)
Number only, in µg/mL; omit the unit.

Exam item: Fill in the blank: the reported solubility of CN(C)CCN1CCN(C(=O)N2C[C@H](c3ccc(Cl)c(Cl)c3)[C@@H](N(C)Cc3ccc(C(F)(F)F)c(F)c3)C2)CC1 is ____.
Marked response: 495

----------
Reported Ki values for the following molecules.
biological target: Neuromedin-K receptor (Homo sapiens); assay: Displacement of [3H]SR142801 from human neurokinin NK3 receptor expressed in HEK293-EBNA cells; type: cell-based; settings: read-out: Ki
Sequence (P29371 whole entry): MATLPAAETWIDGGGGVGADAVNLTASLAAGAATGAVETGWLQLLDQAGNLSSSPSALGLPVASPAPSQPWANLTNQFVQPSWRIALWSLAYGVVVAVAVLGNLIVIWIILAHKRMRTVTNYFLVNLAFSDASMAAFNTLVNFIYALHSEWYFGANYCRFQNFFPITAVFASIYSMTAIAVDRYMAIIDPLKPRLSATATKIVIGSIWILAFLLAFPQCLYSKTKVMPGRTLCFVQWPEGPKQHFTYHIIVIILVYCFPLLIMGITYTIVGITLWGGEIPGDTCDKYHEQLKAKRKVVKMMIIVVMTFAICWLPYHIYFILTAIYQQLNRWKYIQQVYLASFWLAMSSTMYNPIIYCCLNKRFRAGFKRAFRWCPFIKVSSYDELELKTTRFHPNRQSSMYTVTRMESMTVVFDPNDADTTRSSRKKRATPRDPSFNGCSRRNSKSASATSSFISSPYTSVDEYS
Number only, in µM; omit the unit.

Exam item: Fill in the blank: the reported Ki of CN(C(=O)C(C)(C)c1cc(C(F)(F)F)cc(C(F)(F)F)c1)[C@H]1CN(C(=O)N2CCN(S(C)(=O)=O)CC2)C[C@@H]1c1ccccc1 (racemic) is ____.
Marked response: 0.1

Exam item: Fill in the blank: the reported Ki of CN(Cc1cc(C(F)(F)F)cc(C(F)(F)F)c1)[C@H]1CN(C(=O)N2CCN(S(C)(=O)=O)CC2)C[C@@H]1c1ccccc1 (racemic) is ____.
Marked response: 1.3

Exam item: Fill in the blank: the reported Ki of CN(C(=O)C(C)(C)c1cc(C(F)(F)F)cc(C(F)(F)F)c1)[C@H]1CN(C(=O)N2CCN(S(C)(=O)=O)CC2)C[C@@H]1c1ccc(F)cc1 (racemic) is ____.
Marked response: 0.165

Exam item: Fill in the blank: the reported Ki of CN(C(=O)C(C)(C)c1cc(C(F)(F)F)cc(C(F)(F)F)c1)[C@H]1CN(C(=O)NCCO)C[C@@H]1c1ccc(F)cc1 (racemic) is ____.
Marked response: 0.298

Exam item: Fill in the blank: the reported Ki of CN(C(=O)C(C)(C)c1cc(C(F)(F)F)cc(C(F)(F)F)c1)[C@H]1CN(C(=O)N(CCO)CCO)C[C@@H]1c1ccc(F)cc1 (racemic) is ____.
Marked response: 0.192

Exam item: Fill in the blank: the reported Ki of CC(=O)N1CCN(C(=O)N2C[C@H](c3ccc(F)cc3)[C@@H](N(C)C(=O)C(C)(C)c3cc(C(F)(F)F)cc(C(F)(F)F)c3)C2)CC1 (racemic) is ____.
Marked response: 0.37

----------
molecular target: UniProt:P25103
Sequence (P25103 whole entry): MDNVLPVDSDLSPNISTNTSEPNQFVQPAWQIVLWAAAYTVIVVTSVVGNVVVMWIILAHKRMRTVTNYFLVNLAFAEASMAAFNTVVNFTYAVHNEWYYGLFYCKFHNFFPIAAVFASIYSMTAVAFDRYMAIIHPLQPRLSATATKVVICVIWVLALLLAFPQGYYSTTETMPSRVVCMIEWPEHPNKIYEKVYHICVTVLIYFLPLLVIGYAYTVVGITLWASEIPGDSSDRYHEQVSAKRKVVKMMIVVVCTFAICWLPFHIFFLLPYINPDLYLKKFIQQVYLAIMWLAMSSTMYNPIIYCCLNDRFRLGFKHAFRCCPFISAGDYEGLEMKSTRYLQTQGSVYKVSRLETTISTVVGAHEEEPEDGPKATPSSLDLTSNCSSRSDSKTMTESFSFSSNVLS
Reported Ki values for the following compounds.
Number only, in nM; omit the unit.

Check out these entries, answers already filled in.
{"columns": ["COMPOUND", "DISPLAY_UNIT", "Ki"],
 "data": [
  ["CN(C(=O)C(C)(C)c1cc(C(F)(F)F)cc(C(F)(F)F)c1)[C@H]1CNC[C@@H]1c1ccc(F)cc1 (racemic)", "nM", 0.9],
  ["CN(C(=O)C(C)(C)c1cc(C(F)(F)F)cc(C(F)(F)F)c1)[C@H]1CN(C(=O)N(CCO)CCO)C[C@@H]1c1ccc(F)cc1 (racemic)", "nM", 1.1]
]}

Attention now turns to another entry.
Exam item: Reported Ki for UniProt:P25103, given CN(C(=O)C(C)(C)c1cc(C(F)(F)F)cc(C(F)(F)F)c1)[C@H]1CN(C(=O)N2CCN(S(C)(=O)=O)CC2)C[C@@H]1c1ccc(F)cc1 (racemic) ?
Marked response: 2.1
